Values were extracted from patent US20260226048A1.

Target: FLT3 D835V (Homo sapiens, UniProt P36888, D835V)
Construct: purchased DiscoverX (KINOMEscan); host or cells: E. coli BL21-derived host (T7 phage) or HEK-293
Assay: DiscoverX KINOMEscan competition binding assay, FLT3 D835V
Settings: 11-point 3-fold dilution
Reported Metric: Kd

>>> test_value("COc1cc2ncc(-c3nc(N[C@H]4CNCC[C@@H]4F)ncc3F)n2nc1C(C)(C)O [Compound 45a]")
"0.87 nM"
>>> test_value("FC(F)COc1cc2ncc(-c3ccnc(N[C@H]4CNCC[C@@H]4F)n3)n2nc1C1CC1 [Compound 4a]")
"< 0.17 nM"

Now consider the entry below.
# query: Kd | item CC(C)(O)c1cn2c(-c3nc(N[C@H]4CNCC[C@@H]4F)ncc3F)cnc2cn1 [Compound 100a] | system: FLT3 D835V (Homo sapiens, UniProt P36888, D835V)
2.1 nM
